Conditions: in n-propyl acetate, 288.15 K
metric_name: solubility (mole fraction)
// no unit, no text: just the number

Task: solubility (mole fraction) lookup needed for O=C(Nc1ccccc1)c1ccccc1O , thanks.
Output: 0.0347

* * *

Settings: in methyl acetate, 303.15 K
metric_name: solubility (mole fraction)
// no unit, no text: just the number

Task: solubility (mole fraction) lookup needed for O=C(Nc1ccccc1)c1ccccc1O , thanks.
Output: 0.0568

* * *

Conditions: in n-pentanol, 313.15 K
metric_name: solubility (mole fraction)

Task: solubility (mole fraction) lookup needed for O=C(Nc1ccccc1)c1ccccc1O , thanks.
Output: 0.0338

* * *

Conditions: in n-butanol, 313.15 K
metric_name: solubility (mole fraction)
// no unit, no text: just the number

Task: solubility (mole fraction) lookup needed for O=C(Nc1ccccc1)c1ccccc1O , thanks.
Output: 0.0346

* * *

Conditions: in n-butanol, 308.15 K
metric_name: solubility (mole fraction)
// no unit, no text: just the number

Task: solubility (mole fraction) lookup needed for O=C(Nc1ccccc1)c1ccccc1O , thanks.
Output: 0.0292

* * *

Conditions: in ethyl formate, 283.15 K
metric_name: solubility (mole fraction)
// no unit, no text: just the number

Task: solubility (mole fraction) lookup needed for O=C(Nc1ccccc1)c1ccccc1O , thanks.
Output: 0.0195

* * *

Conditions: in ethyl acetate, 318.15 K
metric_name: solubility (mole fraction)
// no unit, no text: just the number

Task: solubility (mole fraction) lookup needed for O=C(Nc1ccccc1)c1ccccc1O , thanks.
Output: 0.0808

* * *

Conditions: in isopropyl acetate, 303.15 K
metric_name: solubility (mole fraction)

Task: solubility (mole fraction) lookup needed for O=C(Nc1ccccc1)c1ccccc1O , thanks.
Output: 0.0439

* * *

Conditions: in methyl acetate, 313.15 K
metric_name: solubility (mole fraction)
// no unit, no text: just the number

Task: solubility (mole fraction) lookup needed for O=C(Nc1ccccc1)c1ccccc1O , thanks.
Output: 0.0766

* * *

Details: in ethyl formate, 313.15 K
metric_name: solubility (mole fraction)
// no unit, no text: just the number

Task: solubility (mole fraction) lookup needed for O=C(Nc1ccccc1)c1ccccc1O , thanks.
Output: 0.0488

* * *

Conditions: in methyl acetate, 323.15 K
metric_name: solubility (mole fraction)
// no unit, no text: just the number

Task: solubility (mole fraction) lookup needed for O=C(Nc1ccccc1)c1ccccc1O , thanks.
Output: 0.101

* * *

Details: in n-pentanol, 288.15 K
metric_name: solubility (mole fraction)
// no unit, no text: just the number

Task: solubility (mole fraction) lookup needed for O=C(Nc1ccccc1)c1ccccc1O , thanks.
Output: 0.0157

* * *

Conditions: in acetonitrile, 323.15 K
metric_name: solubility (mole fraction)
// no unit, no text: just the number

Task: solubility (mole fraction) lookup needed for O=C(Nc1ccccc1)c1ccccc1O , thanks.
Output: 0.0485

* * *

Settings: in ethyl formate, 303.15 K
metric_name: solubility (mole fraction)
// no unit, no text: just the number

Task: solubility (mole fraction) lookup needed for O=C(Nc1ccccc1)c1ccccc1O , thanks.
Output: 0.0334

* * *

Details: in ethanol, 288.15 K
metric_name: solubility (mole fraction)
// no unit, no text: just the number

Task: solubility (mole fraction) lookup needed for O=C(Nc1ccccc1)c1ccccc1O , thanks.
Output: 0.0207

* * *

Settings: in n-pentanol, 303.15 K
metric_name: solubility (mole fraction)

Task: solubility (mole fraction) lookup needed for O=C(Nc1ccccc1)c1ccccc1O , thanks.
Output: 0.0238

* * *

Conditions: in ethanol, 308.15 K
metric_name: solubility (mole fraction)
// no unit, no text: just the number

Task: solubility (mole fraction) lookup needed for O=C(Nc1ccccc1)c1ccccc1O , thanks.
Output: 0.0366

* * *

Details: in n-butanol, 298.15 K
metric_name: solubility (mole fraction)
// no unit, no text: just the number

Task: solubility (mole fraction) lookup needed for O=C(Nc1ccccc1)c1ccccc1O , thanks.
Output: 0.021

* * *

Settings: in isopropanol, 288.15 K
metric_name: solubility (mole fraction)
// no unit, no text: just the number

Task: solubility (mole fraction) lookup needed for O=C(Nc1ccccc1)c1ccccc1O , thanks.
Output: 0.0199

* * *

Conditions: in acetonitrile, 293.15 K
metric_name: solubility (mole fraction)
// no unit, no text: just the number

Task: solubility (mole fraction) lookup needed for O=C(Nc1ccccc1)c1ccccc1O , thanks.
Output: 0.0181
